test: Quantitative highthroughput screen to assess conditional lethalithy of SEM cells grown in Human Plasma-Like Medium with dialyzed fetal bovine serum (HPLM+ds) (AID 1963882); conditions: SEM B-ALL cells in HPLM+ds, CellTiter-Glo viability, 48 h; series mostly up to 45.8 µM; also: nearly all actives have a fitted effect of over 35% in size
Results filed as inconclusive are left out. The source made the active and inactive calls. Calls follow the shape of the dose curve; as a rule, active = well fitted cell-killing curve with a large enough effect; inconclusive = small, poorly fitted or top-dose-only effect, or effect the other way; inactive = no such curve, though single readings can be large or run the other way.
Returns: one label drawn from 1 for active, -1 for inactive

Some solved entries appear below for comparison.
{"Compound": "O=S(=O)(O)CCS", "Classification": -1}
{"Compound": "CC(COc1ccccc1)N(CCCl)Cc1ccccc1 (stereo unspecified)", "Classification": -1}
{"Compound": "CNC(=O)CN1CCC(Oc2cc3c(Nc4cccc(Cl)c4F)ncnc3cc2OC)CC1", "Classification": -1}
{"Compound": "Clc1ccccc1C(c1ccccc1)(c1ccccc1)n1ccnc1", "Classification": -1}
{"Compound": "CCN1CCN(Cc2ccc(-c3cc4c(N[C@H](C)c5ccccc5)ncnc4[nH]3)cc2)CC1", "Classification": 1}
{"Compound": "COC1CCC(C(=O)c2ccc3nc4c(cc3c2)CCCO4)CC1 (stereo unspecified)", "Classification": -1}

Ask: Can you look up the reported call for "NC(=NCc1ccccc1)NC(=O)c1nc(Cl)c(N)nc1N" for me?
Reply: -1

Ask: Can you look up the reported call for "Cc1c[nH]c(C=C2C(=O)Nc3ccccc32)c1CCC(=O)O" for me?
Reply: 1

Ask: Can you look up the reported call for "O=C(c1ccc(F)cc1)C1CCN(CCn2c(=O)[nH]c3ccccc3c2=O)CC1" for me?
Reply: -1

Ask: Can you look up the reported call for "CN(C)CCc1c[nH]c2ccc(Cn3cncn3)cc12" for me?
Reply: 1

Ask: Can you look up the reported call for "O=C(NOCC1CC1)c1ccc(F)c(F)c1Nc1ccc(I)cc1Cl" for me?
Reply: 1
